- System: release of LH
- runDescription: Release of LH in rats after sc injection
- Assay type: in vivo
- studyConditions: release 60 min. after sc injection, dosage of peptide 3000 ng
- Text: The data on the release of LH and FSH in rats by modifications of LHRH with one structural change are in Table II. Exclusive of the salmon-LHRH, only one of the six decapeptides with two structural changes had significant activity.
Non-standard residues stand in square brackets, D forms with d. Residues, ends and D or L forms follow the SMILES beside them. pGlu = O=C1CC[C@@H](C(=O)O)N1
Kindly supply the reported LH values for the records listed here.
Record the value in ng/mL, omitting the unit from your answer.

Prompt line: // returns reported LH for input CC(C)C[C@H](NC(=O)[C@H](Cc1c[nH]c2ccccc12)NC(=O)CNC(=O)[C@H](Cc1c[nH]cn1)NC(=O)[C@H](CO)NC(=O)[C@H](Cc1c[nH]c2ccccc12)NC(=O)[C@H](Cc1c[nH]cn1)NC(=O)[C@@H]1CCC(=O)N1)C(=O)N1CCC[C@H]1C(=O)NCC(N)=O [[His^5 Trp^7 Leu^8]--LHRH] ([pGlu]HWSHGWLPG-NH2)
Response line: 5

Prompt line: LH for NC(=O)CNC(=O)[C@@H]1CCCN1C(=O)[C@H](Cc1ccc(O)cc1)NC(=O)[C@H](Cc1c[nH]c2ccccc12)NC(=O)CNC(=O)[C@H](Cc1c[nH]cn1)NC(=O)[C@H](CO)NC(=O)[C@H](Cc1c[nH]c2ccccc12)NC(=O)[C@H](Cc1c[nH]cn1)NC(=O)[C@@H]1CCC(=O)N1 [[His^5 Trp^7 Tyr^8] (Chicken II), reference compound] ([pGlu]HWSHGWYPG-NH2) ?
Response line: 8.4

Prompt line: Field request: LH | item: CC(C)C[C@H](NC(=O)CNC(=O)[C@H](Cc1c[nH]cn1)NC(=O)[C@H](CO)NC(=O)[C@H](Cc1c[nH]c2ccccc12)NC(=O)[C@H](Cc1c[nH]cn1)NC(=O)[C@@H]1CCC(=O)N1)C(=O)N[C@@H](CC(C)C)C(=O)N1CCC[C@H]1C(=O)NCC(N)=O [[His^5 Leu^8]--LHRH] ([pGlu]HWSHGLLPG-NH2)
Response line: 1.8

Prompt line: I am curious: what LH value has been reported for N=C(N)NCCC[C@H](NC(=O)[C@H](Cc1c[nH]c2ccccc12)NC(=O)CNC(=O)[C@H](Cc1c[nH]cn1)NC(=O)[C@H](CO)NC(=O)[C@H](Cc1c[nH]c2ccccc12)NC(=O)[C@H](Cc1c[nH]cn1)NC(=O)[C@@H]1CCC(=O)N1)C(=O)N1CCC[C@H]1C(=O)NCC(N)=O [[His^5 Trp^7]--LHRH] ([pGlu]HWSHGWRPG-NH2) ?
Response line: 138

Prompt line: // returns reported LH for input CC(C)C[C@H](NC(=O)CNC(=O)[C@H](Cc1c[nH]cn1)NC(=O)[C@H](CO)NC(=O)[C@H](Cc1c[nH]c2ccccc12)NC(=O)[C@H](Cc1c[nH]cn1)NC(=O)[C@@H]1CCC(=O)N1)C(=O)N[C@@H](Cc1ccc(O)cc1)C(=O)N1CCC[C@H]1C(=O)NCC(N)=O [[His^5 Tyr^8]--LHRH] ([pGlu]HWSHGLYPG-NH2)
Response line: 2.8
